Source listed as ChEMBL document CHEMBL1828528.

test system: Human immunodeficiency virus 1; assay: Antiviral activity against HIV1 clade G isolate 3187 infected in human H9 cells assessed as inhibition of viral replication; format: functional, organism-based; settings: Human immunodeficiency virus 1, clade G isolate 3187, H9
Below, each entry is listed with its recorded pEC50.
Quick note: pEC50 values are minus log10 of concentrations in mol/L.

compound="Nc1ncnc2c1ncn2CCOCP(=O)(O)O [ADEFOVIR]" numeric_value=6.66
compound="C[C@H](Cn1cnc2c(N)ncnc21)OCP(=O)(O)O [TENOFOVIR ANHYDROUS]" numeric_value=6.82
compound="Nc1ncnc2c1ncn2CCOCP(=O)([O-])[S-].[Na+].[Na+] (centres undefined)" numeric_value=6.06

Then there is this compound:
The compound identified as C[C@H](Cn1cnc2c(N)ncnc21)OCP(=O)([O-])[S-].[Na+].[Na+] (some centres undefined) registered its pEC50 at 6.92
